Attribution: patent US20250361322A1

Each entry below lists one item and its recorded % IL8 at 100 nM antibody value.
target desc: human Tissue Factor (TF) (human, UniProt P13726 33-295)
procedure text: cell-based or functional assay
Report only the number, with the unit % understood.

54E (antibody, human IgG1, V domains shown, Human IgG1; also called antibody designated 54E) VH: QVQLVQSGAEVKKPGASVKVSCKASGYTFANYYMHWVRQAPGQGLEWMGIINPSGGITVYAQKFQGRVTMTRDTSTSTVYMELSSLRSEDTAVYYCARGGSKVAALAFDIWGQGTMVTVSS VL: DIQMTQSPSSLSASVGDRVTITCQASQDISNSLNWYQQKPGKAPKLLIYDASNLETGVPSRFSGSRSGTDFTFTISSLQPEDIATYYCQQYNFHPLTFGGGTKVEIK | 2

Shifting focus to the binder that follows.
Report % IL8 at 100 nM antibody for 25G9 (antibody, human IgG1, V domains shown) VH: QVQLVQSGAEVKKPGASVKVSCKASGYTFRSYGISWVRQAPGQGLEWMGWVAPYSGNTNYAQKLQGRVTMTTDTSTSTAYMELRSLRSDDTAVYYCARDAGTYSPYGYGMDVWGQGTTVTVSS VL: DIQMTQSPSTLSASVGDRVTITCQASQSIDSWLAWYQQKPGKAPKLLIYSASYLESGVPSRFSGSGSGTEFTLTISSLQPDDFATYYCQRFQSLPPFTFGGGTKVEIK please.
13
